Record: pIC50 reported on Nitric oxide synthase, inducible (Homo sapiens).
Sequence (P35228 whole entry): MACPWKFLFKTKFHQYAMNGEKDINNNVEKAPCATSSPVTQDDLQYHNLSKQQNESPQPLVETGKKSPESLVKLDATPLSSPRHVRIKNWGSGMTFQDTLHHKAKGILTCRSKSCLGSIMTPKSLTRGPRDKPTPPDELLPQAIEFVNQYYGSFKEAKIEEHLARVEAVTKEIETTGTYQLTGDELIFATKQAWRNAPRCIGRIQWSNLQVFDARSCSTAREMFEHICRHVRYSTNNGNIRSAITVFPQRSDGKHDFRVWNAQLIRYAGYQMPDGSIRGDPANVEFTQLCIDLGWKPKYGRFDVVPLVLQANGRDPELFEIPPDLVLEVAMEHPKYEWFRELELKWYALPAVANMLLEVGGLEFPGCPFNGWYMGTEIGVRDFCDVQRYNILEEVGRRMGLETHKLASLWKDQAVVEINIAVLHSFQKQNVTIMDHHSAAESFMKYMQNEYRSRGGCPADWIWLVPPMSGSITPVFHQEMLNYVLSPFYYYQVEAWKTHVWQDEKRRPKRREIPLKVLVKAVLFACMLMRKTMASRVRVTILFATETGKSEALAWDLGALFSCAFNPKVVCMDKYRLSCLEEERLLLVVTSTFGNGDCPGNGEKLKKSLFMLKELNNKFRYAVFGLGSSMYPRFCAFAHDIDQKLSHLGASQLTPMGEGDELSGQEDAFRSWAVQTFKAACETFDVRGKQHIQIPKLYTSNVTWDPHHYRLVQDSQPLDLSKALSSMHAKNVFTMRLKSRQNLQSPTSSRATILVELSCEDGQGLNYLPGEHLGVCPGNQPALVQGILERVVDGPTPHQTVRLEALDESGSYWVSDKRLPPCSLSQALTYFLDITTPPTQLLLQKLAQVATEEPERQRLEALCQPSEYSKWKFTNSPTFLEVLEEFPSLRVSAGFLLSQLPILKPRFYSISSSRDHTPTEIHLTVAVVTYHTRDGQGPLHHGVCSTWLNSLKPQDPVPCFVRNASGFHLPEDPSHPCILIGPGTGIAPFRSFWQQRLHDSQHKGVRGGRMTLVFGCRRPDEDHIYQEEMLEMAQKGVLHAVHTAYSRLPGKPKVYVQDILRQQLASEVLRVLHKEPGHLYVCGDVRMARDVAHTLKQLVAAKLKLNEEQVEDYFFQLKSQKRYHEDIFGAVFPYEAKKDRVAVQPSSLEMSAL
Schema: pIC50 number; meaning minus log10 of the concentration expressed in molar units.

Example entries begin here.
O=[N+]([O-])c1cccc2c(Br)n[nH]c12 = 6.54
Fc1c(F)c(F)c(-c2n[nH]c3c(F)c(F)c(F)c(F)c23)c(F)c1F = 3.40

Exam item: I'd like to know its pIC50. The molecule in question is `O=[N+]([O-])c1cccc2cn[nH]c12`
Marked response: 5.24

###

Target: Nitric oxide synthase, inducible (Rattus norvegicus)
Test: Inhibition of Wistar rat NOS2 assessed as L-[3H]citrulline formation at 1 mM by liquid scintillation counting relative to control in presence of EDTA
Consider the reported inhibition of an entry and match it to a band in zone 1: < 20%; zone 2: ≥ 20% and < 40%; zone 3: ≥ 40%

Fc1c(F)c(F)c2c(C(F)(F)F)n[nH]c2c1F = zone 2
Cn1cc2cccc([N+](=O)[O-])c2n1 = zone 2
O=[N+]([O-])c1cccc2c(Br)n[nH]c12 = zone 3
Fc1c(F)c(F)c(-c2n[nH]c3c(F)c(F)c(F)c(F)c23)c(F)c1F = zone 3
Fc1c(F)c(F)c2c(-c3ccccc3)n[nH]c2c1F = zone 2

Exam item: In plain terms, what class is `O=[N+]([O-])c1cccc2cn[nH]c12` ?
Marked response: zone 3

Exam item: Assign a category based on measured inhibition for `Cn1nc2c([N+](=O)[O-])cccc2c1Br` and give only the class name.
Marked response: zone 1

Exam item: Where would `Oc1n[nH]c2c(F)c(F)c(F)c(F)c12` land among the classes by reported inhibition?
Marked response: zone 1

Exam item: GET /class?item= `Cc1n[nH]c2c1C(=O)CCC2`
Marked response: zone 1

Exam item: Tag the class for `O=C1CCCc2[nH]ncc21`
Marked response: zone 2

From: ChEMBL document CHEMBL1152545
